studyTarget: T1, UNK ZnF1-3 (human, UniProt Q9C0B0 31-174)
T1 sequence: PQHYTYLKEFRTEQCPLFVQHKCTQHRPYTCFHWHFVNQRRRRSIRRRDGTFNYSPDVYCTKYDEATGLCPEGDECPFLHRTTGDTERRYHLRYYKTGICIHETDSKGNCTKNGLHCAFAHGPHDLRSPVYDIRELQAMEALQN
testSummary: nsRBNS (natural sequence RNA bind-n-seq); RBNS binding buffer (assumed for nsRBNS): 25 mM Tris pH 7.5, 150 mM KCl, 3 mM MgCl2, 0.01% Triton X-100, 500 ug/ml BSA, 20 U/ml SUPERase-In, 4 C; UNK is unkempt and MSI1 is Musashi-1; names of the RNAs are library labels; protein concentration not given here; high values mean tight binding
In all, about 24,000 sequences were measured (“enrichment r”: median about 0.99, highest 2% from about 3.7 on). Many of the other results were omitted from the sample, so the highest values are more common in it than they were.
measuredEndpoint: binding signal (enrichment R)

{"binder": "chr7:128503047:128503048:+_ENSG00000128524_ENST00000249289|hu_mus|FALSE|FALSE (ssRNA) RNA: GGGAGUUCUACAGUCCGACGAUCGGUGGUAUCCUUCUCCACUACCAGGAAAUUAGGGUGGCGGUUCUUGUUUAGCUCCCCUAUGCCGCCCAACAGGAAACCAGUCACCGUGUCCUCGUCUCCAAUCACCGCGAUUAGCUUACCCAACAGAGGAUUGAGCAUCA", "measuredEndpoint": "binding signal", "obsValue": 0.494}
{"binder": "chr2:153237265:153237266:-_ENSMUSG00000061411_ENSMUST00000109784|mus_mus|mus_mus_mus_hu_False|28_78 (ssRNA) RNA: GGGAGUUCUACAGUCCGACGAUCAAAAAAAAAAAAAAAAAAGUGUCCUUGUGCCCAAAGUCUCAGAUGCUUGGAGUGUGGCUAGAAACAGCUCUUUUGGAUCCCACCUCUUUCAGAAACAAAAUGUACCAACUGGUGAGGCAGCAACAGAGGAUUGAGCAUCA", "measuredEndpoint": "binding signal", "obsValue": 4.56}
{"binder": "112580157_112582736_3545_CDS_ENSG00000153107_ENST00000341068|human|control|control (ssRNA) RNA: GGGAGUUCUACAGUCCGACGAUCCAAAUCUCUUAAAGUGAAUCCUACAUUAGUCAUCCAGACAACCAAUCUUUCAGCUAGACUAGAAACAGAUGUAGAAUGCCUGAAACUAAACCUGUUUUCCUCUUGUUCUACUUGCAACUUCAACAGAGGAUUGAGCAUCA", "measuredEndpoint": "binding signal", "obsValue": 0.842}
{"binder": "chr2:153237265:153237266:-_ENSMUSG00000061411_ENSMUST00000109784|mus_mus|FALSE|FALSE (ssRNA) RNA: GGGAGUUCUACAGUCCGACGAUCAAAAAAAAGAAAAGAAAAGUGUCCUUGUGCCCAAAGUCUCAGAUGCUUGGAGUGCAGCUAGAAACAGCUCUUUUGGAUCCCACCUCUUUCAGAAAACAGUGUACCAACUGGUGAGGCAGGCAACAGAGGAUUGAGCAUCA", "measuredEndpoint": "binding signal", "obsValue": 1.55}
{"binder": "chr2:153237265:153237266:-_ENSMUSG00000061411_ENSMUST00000109784|mus_mus|mus_mus_mus_hu_False|78_108 (ssRNA) RNA: GGGAGUUCUACAGUCCGACGAUCAAAAAAAAGAAAAAAAAAGUGUCCUUGUGCCCAAAGUCUCAGAUGCUUGGAGUGUGGCUAGAAACAGCUCUUUUGGAUCCCACCUCUUUCAAAAACAAAAUGUACCAACUGGUGAGGCAGCAACAGAGGAUUGAGCAUCA", "measuredEndpoint": "binding signal", "obsValue": 3.65}
{"binder": "83879064_83879184_615_CDS_ENSMUSG00000030016_ENSMUST00000032088|mouse|control|control (ssRNA) RNA: GGGAGUUCUACAGUCCGACGAUCUGGAGUUAUAUGAGACUCAUCAUCCCACCGACUACCAUGAGGCUUCCCCUUCUUUUGUUGUGCUUCAGGAAAAUCCAAUUUUUCUUUGGUUAAUCUUGGAUCGGUUCGGUGUUGAGUUACCAACAGAGGAUUGAGCAUCA", "measuredEndpoint": "binding signal", "obsValue": 0.468}
{"binder": "chr3:139236485:139236486:-_ENSG00000114115_ENST00000232219|hu_mus|FALSE|FALSE (ssRNA) RNA: GGGAGUUCUACAGUCCGACGAUCCUGAAGACCAAGGUUAUCUCCUCGGGCUGUUCGGGCUGCUCAGUGUACUUUCUUAAACACUUGCUUGCAGAUCACACCCUCAGCUCUCAUUUCCAGGUGAAGUUCAUCACCCUCGAUCCACAACAGAGGAUUGAGCAUCA", "measuredEndpoint": "binding signal", "obsValue": 0.756}
